# SYSTEM_NAME: CAL PDZ domain (CALP5-His) (UniProt Q9HD26)
# EXPERIMENT_NOTES: FP competition, condition A: probe peptide 26 (50 nM) with 100 nM CALP5-His; competitor titrated
ASSAY_METRIC: pIC50
Quick note: pIC50 means taking -log10 of the concentration in moles per liter.

Look up and state reported pIC50 for peptide 22: Ac-Cys-Arg-(D-Arg)-Arg-(2-Nal)-Trp-Gln-Pen-Thr-Arg-Tle-OH
6.40

* * *

# SYSTEM_NAME: NHERF1-PDZ1 domain (UniProt O14745)
# Sequence (O14745 14-94 limits assumed): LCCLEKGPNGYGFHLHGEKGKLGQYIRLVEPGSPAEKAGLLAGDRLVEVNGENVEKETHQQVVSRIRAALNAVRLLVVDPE
# EXPERIMENT_NOTES: direct FP: 50 nM FITC-labeled peptide, PDZ domain titrated
ASSAY_METRIC: pKd
Quick note: pKd means taking -log10 of the concentration in moles per liter.

Look up and state reported pKd for peptide 29-FITC: FITC-miniPEG-Cys-(D-Arg)-Arg-Arg-Nal-Bta-Pip-Pen-Thr-Arg-Tle-OH
6.11

* * *

# SYSTEM_NAME: CAL PDZ domain (CALP5-His) (UniProt Q9HD26)
# EXPERIMENT_NOTES: FP competition, condition B: probe FAM-…-OH (100 nM) with 500 nM CALP5-His; competitor titrated
ASSAY_METRIC: IC50
Number first, unit second: that is the form wanted.

Given peptide 25: Ac-Cys-(D-Arg)-Arg-Arg-(2-Nal)-(Bta)-Pen-Tle-Thr-Arg-Tle-OH , report its IC50 on CAL PDZ domain (CALP5-His) (UniProt Q9HD26).
235 nM

Given peptide 21: Ac-Cys-(D-Arg)-(D-Arg)-Arg-(2-Nal)-Trp-Gln-Pen-Thr-Arg-Tle-OH , report its IC50 on CAL PDZ domain (CALP5-His) (UniProt Q9HD26).
270 nM

Given peptide 24: Ac-Cys-(D-Arg)-Arg-Arg-(2-Nal)-Trp-Pen-Tle-Thr-Arg-Tle-OH , report its IC50 on CAL PDZ domain (CALP5-His) (UniProt Q9HD26).
380 nM

Given peptide 20: Ac-Cys-(D-Arg)-Arg-Arg-(2-Nal)-Trp-Gln-Pen-Thr-Arg-Tle-OH , report its IC50 on CAL PDZ domain (CALP5-His) (UniProt Q9HD26).
165 nM

* * *

# SYSTEM_NAME: NHERF2-PDZ1 domain (UniProt Q15599)
# Sequence (Q15599 11-90 limits assumed): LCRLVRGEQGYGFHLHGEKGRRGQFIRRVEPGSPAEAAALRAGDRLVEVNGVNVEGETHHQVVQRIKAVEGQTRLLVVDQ
# EXPERIMENT_NOTES: direct FP: 50 nM FITC-labeled peptide, PDZ domain titrated
ASSAY_METRIC: pKd
Quick note: pKd means taking -log10 of the concentration in moles per liter.

Look up and state reported pKd for peptide 29-FITC: FITC-miniPEG-Cys-(D-Arg)-Arg-Arg-Nal-Bta-Pip-Pen-Thr-Arg-Tle-OH
5.86
